# Target entity: recombinant human CD3ε/δ heterodimer (human) (UniProt P07766)
# Sequence (P07766 23-126, stated change not applied, chain 1 of 2): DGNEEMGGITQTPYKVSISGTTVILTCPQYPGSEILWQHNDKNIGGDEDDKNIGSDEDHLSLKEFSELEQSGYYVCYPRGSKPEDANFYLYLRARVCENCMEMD
# Sequence (P04234 22-105, stated change not applied, chain 2 of 2, further chain): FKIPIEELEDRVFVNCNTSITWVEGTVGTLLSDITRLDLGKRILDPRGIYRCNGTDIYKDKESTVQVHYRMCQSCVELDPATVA
# Procedure details: ELISA, coated CD3ε/δ
Reported Absorbance (450 nm) values for the following binders.

Solved cases below.
Binder: A16 (antibody, human IgG1, lambda, L234A L235A, V domains shown) VH: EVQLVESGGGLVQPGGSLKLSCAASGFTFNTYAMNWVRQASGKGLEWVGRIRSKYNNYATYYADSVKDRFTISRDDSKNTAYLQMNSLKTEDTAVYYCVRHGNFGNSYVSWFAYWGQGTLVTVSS VL: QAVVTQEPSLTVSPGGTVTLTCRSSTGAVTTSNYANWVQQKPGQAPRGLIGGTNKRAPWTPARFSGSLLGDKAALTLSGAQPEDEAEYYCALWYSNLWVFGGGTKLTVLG
Absorbance (450 nm): 2.54
--
Binder: E02 (antibody, human IgG1, lambda, L234A L235A, V domains shown) VH: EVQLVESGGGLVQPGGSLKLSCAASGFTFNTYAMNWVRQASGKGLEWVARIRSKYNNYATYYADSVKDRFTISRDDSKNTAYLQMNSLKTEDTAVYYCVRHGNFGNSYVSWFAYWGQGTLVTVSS VL: QAVVTQEPSLTVSPGGTVTLTCRSSTGAVTTSNYANWFQQKPGQAPRTLIYGTNKRAPWTPARFSGSLLGDKAALTLSGAQPEDEAEYYCALWYSNLWVFGGGTKLTVLG
Absorbance (450 nm): 0.095

Q) Please indicate Absorbance (450 nm) recorded for E04 (antibody, human IgG1, lambda, L234A L235A, V domains shown) VH: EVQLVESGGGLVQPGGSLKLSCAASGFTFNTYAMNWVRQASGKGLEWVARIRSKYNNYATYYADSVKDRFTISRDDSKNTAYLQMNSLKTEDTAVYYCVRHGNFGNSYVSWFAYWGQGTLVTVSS VL: QAVVTQEPSLTVSPGGTVTLTCRSSTGAVTTSNYANWFQQKPGQAPRTLIGGTNKRAPWTPARFSGSLLGDKAALTLSGAQPEDEAEYYCALWYSNLWVFGGGTKLTVLG
A) 0.087
